Molecular target: T1, Human CD3εδ Fc heterodimer (Hu CD3ε Fc + CD3δ Fc-HIS) (human, UniProt P07766 22-126; P04234 22-100)
T1 construct: range 22-126;range 22-100; Made in HEK 293 cells with a heterologous signal peptide; also called Hu CD3εδ-Fc; CD3εδ Fc-HIS heterodimer; not shown: Fc; Fc followed by HIS tag
T1 sequence (P07766 22-126, stated change not applied, form in doubt, chain 1 of 2): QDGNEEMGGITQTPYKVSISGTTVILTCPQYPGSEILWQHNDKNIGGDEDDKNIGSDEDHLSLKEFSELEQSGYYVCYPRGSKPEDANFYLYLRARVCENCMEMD
T1 sequence (P04234 22-100, stated change not applied, form in doubt, chain 2 of 2): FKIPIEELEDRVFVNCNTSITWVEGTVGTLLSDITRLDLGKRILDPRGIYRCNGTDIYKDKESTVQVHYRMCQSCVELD
Experiment: BLI (Octet), Fab monovalent, pH 7.4
observed_property: Kd (nM)

binder	recorded_number
Antibody No. A005 (ADI-26921) Fab (Fab, V domains shown, Fab by papain digestion of the IgG1) VH: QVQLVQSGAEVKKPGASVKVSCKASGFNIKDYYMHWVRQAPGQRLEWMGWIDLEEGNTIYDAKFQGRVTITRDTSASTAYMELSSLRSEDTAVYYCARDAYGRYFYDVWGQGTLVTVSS VL: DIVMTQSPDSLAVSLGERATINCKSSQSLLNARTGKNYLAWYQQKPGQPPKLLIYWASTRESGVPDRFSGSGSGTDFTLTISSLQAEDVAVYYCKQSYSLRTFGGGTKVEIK	78
